Where do these numbers come from? They come from ChEMBL document CHEMBL1143457.

- Assay Notes: Apparent solubility was measured at PH 6.5 by nepholometric method
- Type: ADME
- Settings: buffer
Observable: solubility kinetic (µg/mL)

P. COc1ccccc1COCCCOc1ccc(N2C(=O)CNC[C@@H]2COCc2cccnc2)cc1
Q. COc1ccccc1COCCCOc1ccc(N2C(=O)CNC[C@@H]2COCc2ccc(F)c(C(F)(F)F)c2)cc1
R. COc1ccccc1COCCCOc1ccc(N2C(=O)CNC[C@@H]2COCc2ccc(Cl)c(C(F)(F)F)c2)cc1
**Q:** Parameters: sort_by = solubility kinetic; order = desc; input = items above. Present the labels in the sequence the task asks for.
**A:** P, Q, R
(P: 100 µg/mL, Q: 7 µg/mL, R: 3 µg/mL)

----------
- Target Or Test System: CYP3A4 (Homo sapiens, UniProt P08684)
- Sequence (P08684 whole entry): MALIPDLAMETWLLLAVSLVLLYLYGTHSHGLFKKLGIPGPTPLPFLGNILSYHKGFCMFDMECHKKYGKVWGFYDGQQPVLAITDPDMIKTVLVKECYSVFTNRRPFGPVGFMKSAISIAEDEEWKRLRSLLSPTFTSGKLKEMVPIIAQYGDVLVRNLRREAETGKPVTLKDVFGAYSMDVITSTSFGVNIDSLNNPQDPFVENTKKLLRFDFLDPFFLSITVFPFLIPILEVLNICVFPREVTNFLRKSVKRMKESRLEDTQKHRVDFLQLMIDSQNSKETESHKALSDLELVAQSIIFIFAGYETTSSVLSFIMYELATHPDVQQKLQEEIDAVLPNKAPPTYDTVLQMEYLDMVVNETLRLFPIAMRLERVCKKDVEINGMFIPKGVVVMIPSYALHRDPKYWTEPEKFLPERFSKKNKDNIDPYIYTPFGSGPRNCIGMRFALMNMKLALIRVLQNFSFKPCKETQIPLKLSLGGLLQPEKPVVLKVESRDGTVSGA
- Assay Notes: Inhibition of CYP3A4 at 3 uM was measured using fluorogenic substrate 7-Benzyloxy-4-(trifluoromethyl)-coumarin
- Type: ADME
- Settings: probe 7-Benzyloxy-4-(trifluoromethyl)-coumarin
Observable: inhibition at 3 µM (%)

Measured on CYP3A4 (Homo sapiens, UniProt P08684), `COc1ccccc1COCCCOc1ccc(N2C(=O)CNC[C@@H]2COCc2ccc(F)c(C(F)(F)F)c2)cc1` has a documented inhibition at 3 µM of 87

a. COc1ccccc1COCCCOc1ccc(N2C(=O)CNC[C@@H]2COCc2cccnc2)cc1
b. COc1ccccc1COCCCOc1ccc(N2C(=O)CNC[C@@H]2COCc2ccc(Cl)c(C(F)(F)F)c2)cc1
**Q:** // task: argmin of inhibition at 3 µM over [ a , b ] Indicate which entry you chose by stating its label.
**A:** a
(a: 44%, b: 97%)

----------
- Assay Notes: Distribution coefficient at PH 7.4 was determined
- Format: physicochemical
- Settings: octanol/water
Observable: logD

What the record says about `COc1ccccc1COCCCOc1ccc(N2C(=O)CNC[C@@H]2COCc2ccc(F)c(C(F)(F)F)c2)cc1` : logD is 3.7

GET /value?item= `COc1ccccc1COCCCOc1ccc(N2C(=O)CNC[C@@H]2COCc2ccc(Cl)c(C(F)(F)F)c2)cc1` &field=logD returns 3.7

logD reading for `COc1ccccc1COCCCOc1ccc(N2C(=O)CNC[C@@H]2COCc2cccnc2)cc1` : 2.9

----------
pIC50: −log10 of the molar value.
// each record: one item and its pIC50 for Renin (Homo sapiens, UniProt P00797)
Observable: pIC50

Record `COc1ccccc1COCCCOc1ccc(N2C(=O)CNC[C@@H]2COCc2ccccc2OC)cc1` / Renin (Homo sapiens, UniProt P00797), pIC50 recorded as 6.05

pIC50 value, target or system Renin (Homo sapiens, UniProt P00797), for `COc1ccccc1COCCCOc1ccc(N2C(=O)CNC[C@@H]2COCc2ccc(Cl)cc2)cc1` : 6.52

A. COc1ccccc1COCCCOc1ccc(N2C(=O)CNC[C@@H]2COCc2cccc(OC(F)(F)F)c2)cc1
B. COc1ccccc1COCCCOc1ccc(N2C(=O)CNC[C@@H]2COCc2cccc(C#N)c2)cc1
**Q:** Hi team, can someone confirm which has the larger pIC50: A or B ? Thanks. State your choice using its label.
**A:** A
(A: 6.39, B: 5.92)
